molecules and their reported z-score
test: E. coli acrAB mutant growth effects, primary screen, E. coli filamentation inducers, strain DRC39, OD650, 48 h (AID 1179);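 also: screen aims at cell division blockers that make cells filament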; details: E. coli DRC39 delta-acrAB growth, higher = more signal, called active from +8 up or from −8 down
// no unit string in output, number only

# annotated cases, reported z-score shown
                         structure_notation  observed_measurement
0  COC(=O)CC=C[C@@H](C)[C@@H](C=NOCC[C@@H]1C=C[C@H](OC(C)=O)[C@@H](COC(C)=O)O1)OC                 0.138
1  O=c1n(Cc2cc3c(cc2Cl)OCO3)c(=O)n2n1CC[C@@H]1C(=NOCc3ccccc3)[C@H]3O[C@H]3[C@@H](O)[C@@H]12                -0.628

For this molecule ( COc1ccc(O[C@H]2C=C[C@@H](c3ccccc3)O[C@@H]2CON=C2[C@H]3CCn4c(=O)n(-c5ccccc5)c(=O)n4[C@H]3[C@H](O)[C@@H]3O[C@H]23)cc1 ), measured z-score is 0.731
